- runDescription: NCI Yeast Anticancer Drug Screen. Data for the sgs1 mgt1 strain (AID 161);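 further: 0% = growth of cultures given vehicle only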
- conditions: S. cerevisiae sgs1 mgt1 strain, at 50.0 µM, active compounds read high
About 79,000 compounds went through this panel and 15% of them were active in at least one assay; those are over-represented in the sample as a whole.
Assign satisfied whenever growth inhibition does not fall below 10%; assign not satisfied whenever it does.

>>> df
                                    compound     classlabel
 0  COC1CCC(/C(C#N)=C/C2CCC(OC)C(OC)C2)CC1 (stereo not given)      satisfied
 1      Oc1ccc(C(c2ccc(O)cc2)c2ccc(O)cc2)cc1      satisfied
 2  O=c1cc(-c2ccc(Cl)cc2)oc2cc(OCCCOc3ccc4c(=O)cc(-c5ccc(Cl)cc5)oc4c3)ccc12      satisfied
 3        CC1=C(N2CCCCC2)S(=O)(=O)c2ccccc2C1      satisfied
 4  CC(C)C12Cc3c(ccc4ccccc34)OC1(C)Oc1ccc3ccccc3c1C2 (stereo not given)  not satisfied
 5        COC(=O)c1cc2ccccc2c2c3c(ccc12)OCO3  not satisfied
 6  Cc1ccc(S(=O)(=O)OCC(c2ccccc2)C(F)(F)F)cc1 (stereo not given)      satisfied
 7             Nc1ncnc(N)c1NC(=O)CCCc1ccccc1  not satisfied
 8  CC12CCC(=O)C=C1CCC1C2C(=O)CC2(C)C1CCC2(O)C(=O)Cn1c(=O)cc[nH]c1=O (stereo not given)      satisfied
 9  CC(I)CNc1ccc(C(=O)O)c(O)c1 (stereo not given)  not satisfied
10  CC1=NN(C(=O)CC(=O)Nc2ccc(C(=O)O)cc2)C(=O)C1N=Nc1ccc(S(N)(=O)=O)cc1 (stereo not given)  not satisfied
11  CCNCc1cc(Nc2cc(C)nc(/N=C(\N)Nc3ccc(Cl)c(Cl)c3)n2)ccc1OC      satisfied
12                  S=C(NNC1=NCCN1)Nc1ccccc1  not satisfied
13  COC(=O)CCC(CCC(=O)OC)([N+](=O)[O-])[N+](=O)[O-]  not satisfied
14               Nc1ccc(CCc2ccc3ccccc3n2)cc1      satisfied

* * *

Reported growth inhibition values follow for various compounds
- runDescription: NCI Yeast Anticancer Drug Screen. Data for the mec2-1 strain (AID 157)
- conditions: S. cerevisiae mec2-1 strain, at 50.0 µM, active compounds read high
Compounds without any hit were thinned out: in the full panel of roughly 79,000, 15% have a hit.
metricName: growth inhibition (%)

                                    compound  numericreadout
 0            Cc1ccc(N=Cc2ccc(C(N)=S)cc2)cc1            21.3
 1  CN(C)c1ccc(/C=N/N(Cc2ccccc2)c2ccccc2)cc1           -29.1
 2                   COc1cc(C(=O)O)cc(O)c1OC            -4.5
 3  O=C(CCC(=O)Nc1ccccc1[N+](=O)[O-])CC(=O)c1ccc(Br)cc1            7.75
 4  O=C(O)C(CBr)c1ccccc1 (stereo unspecified)             7.2
 5                          CCCCOc1ccc(N)cn1           -4.85
 6  CCN(CC)CCCNc1nc2ccccc2c2[nH]c3ccc(OC)cc3c12           -26.2
 7                          Oc1ccc(Cl)c(O)c1           -0.55
 8                              CC1=NCCN1CCN           -17.2
 9  CC(C)CN(CC(C)C)C(=O)c1ccc([N+](=O)[O-])cc1            22.8
10  CC(=O)OCCC(C)Nc1ccnc2cc(Cl)ccc12 (stereo unspecified)           -7.45
11  O=C(O)c1ccccc1-c1ccccc1C(=O)Nc1ccc2c(c1)[nH]c(=O)c1ccccc12           -3.85
12  CC1(C)OC(C2SCCS2)C2OC(=O)C(O[Si](C)(C)C(C)(C)C)C2O1 (stereo unspecified)            16.2
13  O=C1c2c(O)cccc2C(C(=O)CCCCC(=O)C2c3cccc(O)c3C(=O)c3c(O)cccc32)c2cccc(O)c21            15.2
14  CN(C)CC1CCC(=C2CCCC2)C1=O (stereo unspecified)           -10.7
15                Cc1cccc(Cl)c1NC(=O)C(Cl)Cl            9.75
